I'd be grateful if you could share measured inhibition at 0.1 µM for these entries.
# tested.on: Rat Striatal Nicotinic Receptors ([^3H]NIC binding sites; α4β2) (Rattus norvegicus, UniProt P09483+P12390)
# Construct: Whole brain, excluding cortex and cerebellum, was homogenized in 20 vol of ice-cold buffer; from tissue; host or cells: rat brain membranes (whole brain excluding cortex and cerebellum)
# Sequence (P09483 31-630): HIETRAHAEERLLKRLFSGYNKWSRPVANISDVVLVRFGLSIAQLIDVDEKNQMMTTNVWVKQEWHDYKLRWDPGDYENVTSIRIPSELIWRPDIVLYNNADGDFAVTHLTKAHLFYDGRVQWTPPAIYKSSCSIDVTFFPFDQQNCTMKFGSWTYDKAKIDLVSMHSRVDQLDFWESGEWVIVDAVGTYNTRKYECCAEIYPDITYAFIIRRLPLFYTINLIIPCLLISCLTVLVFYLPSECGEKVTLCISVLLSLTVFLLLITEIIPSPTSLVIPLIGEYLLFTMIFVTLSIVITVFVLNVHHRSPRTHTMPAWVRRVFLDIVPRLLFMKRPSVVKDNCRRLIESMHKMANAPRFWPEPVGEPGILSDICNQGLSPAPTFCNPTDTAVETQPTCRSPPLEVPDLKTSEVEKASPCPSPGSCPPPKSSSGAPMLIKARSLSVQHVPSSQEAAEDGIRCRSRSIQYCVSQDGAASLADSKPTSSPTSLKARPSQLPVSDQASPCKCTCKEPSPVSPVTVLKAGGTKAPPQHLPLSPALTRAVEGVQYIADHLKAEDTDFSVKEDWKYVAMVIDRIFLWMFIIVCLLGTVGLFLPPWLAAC
# Sequence (P12390 25-500): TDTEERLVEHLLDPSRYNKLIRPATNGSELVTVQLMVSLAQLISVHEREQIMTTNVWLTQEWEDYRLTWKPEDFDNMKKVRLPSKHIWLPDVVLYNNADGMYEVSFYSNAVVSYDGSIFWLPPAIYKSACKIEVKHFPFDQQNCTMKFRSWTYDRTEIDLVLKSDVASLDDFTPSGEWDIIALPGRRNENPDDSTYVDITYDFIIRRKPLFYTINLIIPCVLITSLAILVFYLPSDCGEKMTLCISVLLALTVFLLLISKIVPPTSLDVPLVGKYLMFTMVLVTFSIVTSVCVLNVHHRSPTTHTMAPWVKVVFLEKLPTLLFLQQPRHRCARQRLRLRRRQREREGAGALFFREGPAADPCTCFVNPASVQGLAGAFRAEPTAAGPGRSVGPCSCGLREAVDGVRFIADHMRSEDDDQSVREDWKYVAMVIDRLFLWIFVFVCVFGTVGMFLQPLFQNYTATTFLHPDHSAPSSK
# assay.text: Inhibition of [^3H]NIC binding
# experimental.parameters: 1 h; 100 nM analog; 3 nM [^3H]NIC; nonspecific 10 μM cytisine; rat brain membranes
Numbers only, in %.

[[record]]
smiles_code = "Cc1cc(C)c[n+](CCCc2ccc(-c3ccc(CCC[n+]4cc(C)cc(C)c4)cc3)cc2)c1"
data_value = 1.6

[[record]]
smiles_code = "c1ccc(CCCCC[n+]2ccc3ccccc3c2)c(CCCCC[n+]2ccc3ccccc3c2)c1"
data_value = 1.9

[[record]]
smiles_code = "Cc1ccc[n+](CCCCCc2cccc(CCCCC[n+]3cccc(C)c3)c2)c1"
data_value = 3.5


Give me measured inhibition at 0.1 µM, please, for this compound: Cc1cc[n+](CC#Cc2ccc(-c3ccc(C#CC[n+]4ccc(C)cc4)cc3)cc2)cc1
9.6
